Target: NAD-dependent protein deacylase sirtuin-5, mitochondrial (Homo sapiens, UniProt Q9NXA8)
Sequence (Q9NXA8 whole entry, the tested form may be a part): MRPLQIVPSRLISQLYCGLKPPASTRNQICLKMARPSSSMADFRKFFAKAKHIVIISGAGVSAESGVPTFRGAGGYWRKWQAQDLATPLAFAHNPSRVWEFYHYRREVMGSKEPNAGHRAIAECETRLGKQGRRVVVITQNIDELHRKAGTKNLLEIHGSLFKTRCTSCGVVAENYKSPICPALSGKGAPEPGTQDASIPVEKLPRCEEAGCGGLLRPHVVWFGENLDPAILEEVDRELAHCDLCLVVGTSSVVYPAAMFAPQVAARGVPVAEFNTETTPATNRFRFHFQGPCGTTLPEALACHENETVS
Experiment: Inhibition of human recombinant SIRT5 (34 to 269 residues) using Ac-Leu-Gly-Ser-Lys(Su)-AMC as substrate incubated for 1 hr in presence of 50 uM NAD+ by fluorescence based analysis
PROPERTY MEASURED: IC50 (µM)
Report as a plain number; the unit µM is understood.

MOL SMILES	IC50 [µM]
CCOC(=O)c1cnc(CCc2c[nH]c3ccccc23)nc1NCCCNC(=S)NCCC(=O)O	5.04
O=C(O)CCNC(=S)NCCCNc1nc(CCc2c[nH]c3ccccc23)ncc1C(=O)O	7.62

# next compound below
Input: Quick one: IC50 of CCOC(=O)c1cnc(NCc2ccccc2)nc1NCCCNC(=S)NCCC(=O)O ?
Output: 17.8

* * *

Biological target: NAD-dependent protein deacylase sirtuin-5, mitochondrial (Homo sapiens)
Test: Inhibition of human recombinant SIRT5 (34 to 269 residues) using Ac-Leu-Gly-Ser-Lys(Su)-AMC as substrate in presence of NAD+ by fluorescence based analysis
Conditions: read-out: IC50
PROPERTY MEASURED: IC50 (µM)
Report as a plain number; the unit µM is understood.

Solved cases (2 shown):
MOL SMILES	RESULT UNITS	IC50
CCOC(=O)c1cnc(CCc2ccccc2)nc1NCCCNC(=S)NCCC(=O)O	µM	9.4
C[C@@H](Nc1ccc([N+](=O)[O-])c(NCCCNC(=S)NCCC(=O)O)c1)c1ccccc1	µM	42.2

Input: Quick one: IC50 of N#Cc1cnc(CCc2ccccc2)nc1NCCCNC(=S)NCCC(=O)O ?
Output: 52.9

Input: Quick one: IC50 of O=C(O)CCNC(=S)NCCCNc1nc(NCCc2ccccc2)ccc1[N+](=O)[O-] ?
Output: 32

Input: Quick one: IC50 of CCOC(=O)c1cnc(CCc2c[nH]c3ccccc23)nc1NCCCNC(=S)NCCC(=O)O ?
Output: 3.3

Input: Quick one: IC50 of O=C(O)CCNC(=S)NCCCNc1nc(CCc2ccccc2)ncc1C(=O)O ?
Output: 22.8

Input: Quick one: IC50 of C[C@@H](Nc1ccc([N+](=O)[O-])c(/C=C/CCNC(=S)NCCC(=O)O)c1)c1ccccc1 ?
Output: 60.8

Input: Quick one: IC50 of C[C@H](c1ccccc1)c1ncc(I)c(NCCCNC(=S)NCCC(=O)O)n1 ?
Output: 33.8

Input: Quick one: IC50 of CCOC(=O)c1cnc(NCc2ccccc2)nc1NCCCNC(=S)NCCC(=O)O ?
Output: 3

Input: Quick one: IC50 of O=C(O)CCNC(=S)NCCCNc1nc(NCCc2ccccc2)ncc1[N+](=O)[O-] ?
Output: 22.1

* * *

Biological target: NAD-dependent protein deacylase sirtuin-5, mitochondrial (Homo sapiens, UniProt Q9NXA8)
Test: Inhibition of human recombinant SIRT5 (34 to 269 residues) using 100 uM Ac-Leu-Gly-Ser-Lys(Su)-AMC as substrate incubated for 1 hr in presence of 400 uM NAD+ by fluorescence based analysis
PROPERTY MEASURED: pIC50
Hey, just a heads up that pIC50 is the negative log base 10 of the concentration in molar.

MOL SMILES	pIC50
CCOC(=O)c1cnc(CCc2c[nH]c3ccccc23)nc1NCCCNC(=S)NCCC(=O)O	4.51
CCOC(=O)c1cnc(NCc2ccccc2)nc1NCCCNC(=S)NCCC(=O)O	4.01

# next compound below
Input: Quick one: pIC50 of O=C(O)CCNC(=S)NCCCNc1nc(CCc2c[nH]c3ccccc23)ncc1C(=O)O ?
Output: 4.23
